- Tested on: MALME-3M melanoma
- measurement_notes: NCI-60 one-dose screen, 48 h (100 = growth as untreated, 0 = no growth, -100 = all killed)
- settings: 10 µM
Compounds without any hit were thinned out: in the full panel of roughly 83,000, 20% have a hit.
Decide using growth: a value greater than or equal to 90% is 1.0, a smaller one is 0.0.

| compound | discrete_label |
| --- | --- |
| N#CSCC1CC(O)(c2ccccc2)CC(c2ccc(Cl)cc2)O1 (stereo unspecified) | 0.0 |
| CC1(O)CCC2CC3OC3(C)CCC3OC3(C)CCC1C2(C)C (stereo unspecified) | 1.0 |
| CC12O[C@H](C[C@@H](O)[C@H]1O)n1c3ccccc3c3c4c(c5c6ccccc6n2c5c31)C(=O)N(CCCN)C4=O | 0.0 |
| COc1cc(Nc2ccnc(NCCNc3ccnc4cc(Cl)ccc34)n2)cc(OC)c1 | 0.0 |
| COc1ccccc1CNCCCN1C(=O)c2ccc3c4c(ccc(c24)C1=O)C(=O)N(CCCN)C3=O | 0.0 |
| COC(=O)C(C(C[N+](=O)[O-])c1ccccc1)=P(c1ccccc1)(c1ccccc1)c1ccccc1 (stereo unspecified) | 1.0 |
| O=C(Nc1cccc(Cl)c1)Nc1nccs1 | 1.0 |
| CCCCCCNC(=O)Oc1ccc(/C(=C(/CC)Cc2ccccc2)c2ccc(OCCN3CCCCC3)cc2)cc1 | 1.0 |
| COc1ccc(OC)c(NC(=O)c2sc3nc4c(cc3c2N)C(=O)CCC4)c1 | 0.0 |
| COc1cccc(NC(=O)c2sc3nc4c(cc3c2N)C(O)CCC4)c1 (stereo unspecified) | 0.0 |
| Clc1nc(Cl)c2c(ncn2C/C=C\Cn2cnc3c(Cl)nc(Cl)nc32)n1 | 0.0 |
| COc1cc(Nc2ccnc(NCCCNc3ccnc4cc(Cl)ccc34)n2)cc(OC)c1 | 0.0 |
| COc1cc(/C=C/C(=O)c2ccc(Cl)cc2)ccc1OS(=O)(=O)c1ccc(C)cc1 | 1.0 |
| Cc1ccc(C(=O)Nc2cccc(F)c2)cc1NC(=O)C1(c2ncnc3[nH]ccc23)CC1 | 0.0 |
| Nc1c(C(=O)Nc2ccccc2)sc2nc3c(cc12)CCCC3 | 0.0 |
| Cc1ccc(Nc2cc(C)nc(NCCCNc3ccnc4cc(Cl)ccc34)n2)cc1 | 0.0 |
| Cc1ccc(NC(=O)NC2CCCCC2)cc1 | 1.0 |
| S=c1[nH]ccn1-c1c(Cl)cccc1Cl | 1.0 |
| CC1=C(N2CCOCC2)C(N2CCOCC2)=C(C)C(=O)C1=O | 1.0 |
| Cn1c([N+](=O)[O-])cnc1/C=C1\Oc2ccccc2C1=O | 0.0 |
| O=C(c1ccc(Cl)cc1Cl)N1CCOCC1 | 1.0 |
| CC(C)C[C@H](NC(=O)[C@H](Cc1cccc2ccccc12)NS(=O)(=O)c1cccc2cccnc12)B(O)O | 0.0 |
| COc1cc(-c2nnc(-c3c(-c4ccc(F)cc4)nc4ccccn34)o2)cc(OC)c1OC | 1.0 |
| COc1ccc(-c2nn(-c3cccc(NC(=O)c4ccc(N5CCOCC5)c(C(F)(F)F)c4)c3)cc2-c2ccncc2)cc1Cl | 0.0 |
| COc1ccc(S(=O)(=O)NCCCNc2nccc(-c3c(-c4ccc(F)cc4)nc4sccn34)n2)cc1 | 0.0 |
| CCN(CC)CCCOCCCNc1cc(OC)cc2cccnc12 | 1.0 |
| Nc1nc(N)c2c(ccc3nccc32)[nH]1 | 0.0 |
| COc1ccc(-c2nsc3c2NC(=O)CC3c2ccc(F)cc2)cc1 (stereo unspecified) | 0.0 |
| CSC1=NCCCC1 | 1.0 |
| CCCCCCCCCCCCCCCC(=O)OC1[C@@H](OC(=O)CCCCCCCCCCCCCCC)[C@@H](C(=O)N[C@@H](CCCCN)C(=O)OC)O[C@H]1n1cnc2c(=O)[nH]c(NC(=O)C(C)C)nc21 (stereo partly specified) | 1.0 |
| CCN(CC)CCCC(C)Nc1nc(-c2ccc(OC)cc2)nc2cc(Cl)ccc12 (stereo unspecified) | 0.0 |
| CC(C)N(CCNc1nc(C(Cl)(Cl)Cl)nc2cc(Cl)ccc12)C(C)C | 0.0 |
| Nc1nc(N=Nc2ccc(O)cc2)cc(=O)[nH]1 | 1.0 |
| ClCCOCCn1cnc2c(Cl)nc(Cl)nc21 | 1.0 |
| CCCCCCCCCCCCCCCCCC(=O)OCCCCCCC | 1.0 |
| COc1cc(/C=C\c2cc(OC)c(OC)c(OC)c2)cc(NS(=O)(=O)c2ccc(Cl)cc2)c1OC | 0.0 |
| CCOC(=O)C(CSC(c1ccccc1)(c1ccccc1)c1ccccc1)NC(=O)C(CSC(c1ccccc1)(c1ccccc1)c1ccccc1)NC(c1ccccc1)(c1ccccc1)c1ccccc1 (stereo unspecified) | 1.0 |
